test system: UniProt Q9H7B4
procedure details: SMYD3 biochemical assay (SMYD3 enzyme assay on MEKK2 protein substrate, 3H-SAM scintillation proximity assay)
condition: Table 1A; average of n = 1 to n = 50; read-out: SMYD3 Biochem IC50
Source text: S-adenosylmethionine (SAM), S-adenosylhomocysteine (SAH), Tris, Tween20, dimethylsulfoxide (DMSO), bovine skin gelatin (BSG), and Tris(2-carboxyethyl)phosphine hydrochloride solution (TCEP) were purchased from Sigma-Aldrich at the highest level of purity possible. ^3H-SAM was purchase from American Radiolabeled Chemicals with a specific activity of 80 Ci/mmol. 384-well opaque white OptiPlates and SPA beads (Perkin Elmer, catalog # RPNQ0013) were purchased from PerkinElmer. […]
Listed compounds paired with reported IC50

Reference set, count: 5
NCCC(=O)N1CCC(NC(=O)c2nnc[nH]2)CC1 ... > 50 µM
C[C@@H]1C[C@@H](NC(=O)c2ccccc2)CCN1C(=O)C1CCC(N)CC1 (mixture of isomers) ... > 10 µM
Cc1nnc(C(=O)N[C@H]2CC[C@H](NC(=O)CCN)CC2)[nH]1 ... > 50 µM
CC(NC(=O)c1n[nH]c(=O)[nH]1)C1CCN(C(=O)[C@H](C)N)CC1 (some centres unmarked) ... 9.76 µM
C[C@H]1C[C@@H](NC(=O)c2ccccc2)CCN1S(=O)(=O)CCCN (stereo in doubt) ... > 10 µM

API: value(readout=IC50, system=UniProt Q9H7B4) for record "N[C@H]1CC[C@H](NC(=O)c2cc3cc(Br)ccc3nc2O)CC1"
> 10 µM

Okay, and "Cc1[nH]cnc1C(=O)N[C@H]1CC[C@H](N)CC1" ?
> 50 µM

Same lookup for "N[C@H]1CC[C@H](NC(=O)c2n[nH]c(=O)[nH]2)CC1" , please.
> 50 µM

Input "CCc1cnc(C(=O)N[C@H]2CC[C@H](N)CC2)s1"
> 50 µM

* * *

test system: SMYD3 (Homo sapiens (Human), UniProt Q9H7B4)
Sequence (Q9H7B4 whole entry): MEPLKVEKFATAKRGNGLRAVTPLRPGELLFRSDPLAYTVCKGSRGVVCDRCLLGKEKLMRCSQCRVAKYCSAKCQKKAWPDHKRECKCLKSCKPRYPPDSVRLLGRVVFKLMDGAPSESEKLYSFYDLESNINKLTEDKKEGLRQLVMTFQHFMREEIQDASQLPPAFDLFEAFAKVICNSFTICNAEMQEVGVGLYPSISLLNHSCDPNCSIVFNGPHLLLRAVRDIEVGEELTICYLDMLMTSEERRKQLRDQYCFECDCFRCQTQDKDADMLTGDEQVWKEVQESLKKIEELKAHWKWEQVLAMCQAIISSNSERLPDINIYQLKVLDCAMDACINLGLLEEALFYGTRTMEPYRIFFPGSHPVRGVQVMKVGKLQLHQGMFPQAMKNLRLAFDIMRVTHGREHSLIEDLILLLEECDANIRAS
procedure details: SMYD3 cell assay (Trimethyl-MEKK2 In-Cell Western in 293T/17 cells transfected with MEKK2-flag and SMYD3)
Assay type: cell-based
condition: Table 3A; average of n = 1 to n = 50; read-out: SMYD3 cell IC50
pIC50: −log10 of the molar value. Where a name gives a salt, the structure may show the parent alone.
Criterion: pIC50 meeting or surpassing 6. Met: True. Not met: False.

O=C1Cc2cc(C(=O)N[C@H]3C[C@H]4CC[C@@H](C3)N4S(=O)(=O)CC3CCNCC3)ccc2N1 ... False

Reported pIC50 at or above 6? "CN(C)C1CCN(S(=O)(=O)N2[C@@H]3CC[C@H]2C[C@@H](NC(=O)c2cc4c(cc2Cl)NC(=O)C4)C3)CC1"
True

Do the same for "O=C(N[C@H]1C[C@H]2CC[C@@H](C1)N2S(=O)(=O)[C@H]1CC[C@H](NCc2ccccc2)CC1)c1ccc2c(c1)OC(F)(F)O2" please
False

And the next one, "C[C@H]1C[C@@H](NC(=O)c2ccc3c(c2)CC(=O)N3)CCN1S(=O)(=O)N1CCC(N)CC1" ?
False

Would you kindly repeat that for "N[C@H]1CC[C@H](S(=O)(=O)N2[C@@H]3CC[C@H]2C[C@@H](NC(=O)c2ccc4c(c2)CC(=O)N4)C3)CC1" ?
False

One more compound: "CC(C)(N)c1ccc(S(=O)(=O)N2[C@@H]3CC[C@H]2C[C@@H](NC(=O)c2cc4c(cc2Cl)NC(=O)C4)C3)cc1"
False

Please give the result for CCc1cc(C(=O)N[C@H]2C[C@H]3CC[C@@H](C2)N3S(=O)(=O)N2CCC(N)CC2)ns1 [Cpd. No. 610, Hydrochloride] too.
True

Another compound to look at: "CCc1cnnc(C(=O)N[C@H]2C[C@H]3CC[C@@H](C2)N3S(=O)(=O)N2CCC(N)CC2)c1"
True

Please do the same for O=C(N[C@H]1C[C@H]2CC[C@@H](C1)N2S(=O)(=O)CC1CCNCC1)c1ccc2[nH]c(=O)oc2c1 [Cpd. No. 601, Hydrochloride] as well.
False

And what about the compound CCc1cc(C(=O)N[C@H]2CCN(S(=O)(=O)N3CCC(N)CC3)[C@@H](C)C2)ns1 [compound 605, Hydrochloride] ?
True

How about this compound: "NC1CCN(S(=O)(=O)N2[C@@H]3CC[C@H]2C[C@@H](NC(=O)c2cc(C4CC4)[nH]n2)C3)CC1"
False

* * *

test system: SMYD2 (Homo sapiens (Human), UniProt Q9NRG4)
Sequence (Q9NRG4 whole entry): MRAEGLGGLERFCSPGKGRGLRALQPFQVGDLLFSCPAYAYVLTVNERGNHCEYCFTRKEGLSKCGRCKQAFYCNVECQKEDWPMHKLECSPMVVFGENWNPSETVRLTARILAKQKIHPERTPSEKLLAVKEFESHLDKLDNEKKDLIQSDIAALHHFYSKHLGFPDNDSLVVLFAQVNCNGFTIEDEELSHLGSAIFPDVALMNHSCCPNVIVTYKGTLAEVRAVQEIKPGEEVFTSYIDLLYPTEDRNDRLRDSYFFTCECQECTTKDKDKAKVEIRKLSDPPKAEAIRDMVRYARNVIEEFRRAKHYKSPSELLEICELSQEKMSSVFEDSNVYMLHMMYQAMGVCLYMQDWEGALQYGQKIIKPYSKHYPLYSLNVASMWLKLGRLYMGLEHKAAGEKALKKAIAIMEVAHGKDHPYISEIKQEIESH
procedure details: SMYD2 biochemical assay (SMYD2 enzyme assay on peptide substrate, 3H-SAM Flashplate)
condition: read-out: SMYD2 Biochem IC50; IC50 values are an average of n = 1 to n = 50
measurement name: pIC50
// returns pIC50 (minus log10 of molar concentration), number only

COc1cccc(O)c1C(C)N1CC(NC(=O)c2cn(C3CC3)nn2)C1 (centres unmarked) ... 5.89
COc1ccc(CC(C)N2CC(NC(=O)c3cn(C4CC4)nn3)C2)cc1OC (centres unmarked) ... 5.29
COc1c(OCCO)cccc1C(C)N1CC(NC(=O)c2cn(C3CC3)nn2)C1 (centres unmarked) ... 6.46
CC(c1cnccn1)N1CC(NC(=O)c2cn(C3CC3)nn2)C1 (centres unmarked) ... 5.13

For the next question, use this compound.
Which measured pIC50 value corresponds to "O=C(NC1CN(Cc2cnn(Cc3ccc(F)cc3)c2)C1)c1cn(C2CC2)nn1" ?
7.66

* * *

test system: UniProt:Q9H7B4
procedure details: SMYD3 biochemical assay (SMYD3 enzyme assay on MEKK2 protein substrate, 3H-SAM scintillation proximity assay)
condition: read-out: SMYD3 Biochem IC50
measurement name: pIC50
pIC50 is a log-scale quantity: -log10 of the concentration expressed in molar.

NCCC(=O)N[C@H]1CC[C@H](NC(=O)Cc2ccc3c(c2)CC(=O)N3)CC1 [compound 465] ... 4.41

Report pIC50 for CC1=NN(c2ccc(C(=O)NC(C)C3CCN(C(=O)[C@H](C)N)CC3)cc2)C(=O)C1 (stereo partly shown) [compound 218] please.
4.11

* * *

test system: SMYD2 (Homo sapiens (Human), UniProt Q9NRG4)
procedure details: SMYD2 biochemical assay (SMYD2 enzyme assay on peptide substrate, 3H-SAM Flashplate)
condition: SMYD2 Biochem IC50, IC50 values are an average of n = 1 to n = 50
measurement name: IC50 (nM)
Dear colleague, please return just the value in nM, with no unit written.

C[C@@H](c1ccc(OCc2ccccc2)cc1)N1CC(NC(=O)c2cn(C3CC3)nn2)C1 (single isomer, unassigned) ... 84.5

Looking for the measured IC50 of C[C@H](c1ccc(OCc2ccccc2)cc1)N1CC(NC(=O)c2cn(C3CC3)nn2)C1 (single isomer, unassigned) , can you help?
414

* * *

test system: SMYD3 (Homo sapiens (Human))
procedure details: SMYD3 biochemical assay (SMYD3 enzyme assay on MEKK2 protein substrate, 3H-SAM scintillation proximity assay)
condition: read-out: SMYD3 Biochem IC50 (μM)*
Where a name gives a salt, the structure may show the parent alone.
IC50 strictly less than 10 µM = MET. Otherwise NOT MET.

These solved cases illustrate the format of a correct answer.
CC(NC(=O)c1ccncc1)C1CCN(C(=O)[C@H](C)N)CC1 (stereo partly drawn) ... NOT MET
CN1C(=O)Cc2ccc(C(=O)NC3CCN(C(=O)[C@@H](N)Cc4ccc(O)cc4)CC3)cc21 ... NOT MET
Nc1ccc(C(=O)N[C@H]2CC[C@H](N)CC2)cn1 ... NOT MET

Is IC50 of CN(C(=O)CCN)C1CCC(NC(=O)c2ccc3c(c2)CC(=O)N3)CC1 (stereo not drawn) strictly below 10 µM?
MET

Same thing, different molecule: "NCCC(=O)N[C@H]1CC[C@H](NC(=O)c2ccc3ccccc3n2)CC1"
NOT MET

Subsequent entry: "N[C@H]1CC[C@H](NC(=O)c2nnc[nH]2)CC1"
NOT MET

How about this molecule: "NCCC(=O)N[C@H]1CC[C@H](NC(=O)c2ccc3cnccc3c2)CC1"
NOT MET

Field entry: "CCOC(=O)C1(CNC(=O)c2ccc3c(c2)CC(=O)N3)CCN(C(=O)[C@H](C)N)CC1"
MET

Repeat with "N[C@H]1CC[C@H](NC(=O)c2cc(-n3cnnc3)ccc2Cl)CC1"
NOT MET

// query: "C[C@H](N)C(=O)N1CC[C@H](CNC(=O)c2ccc3c(c2)CC(=O)N3)C1"
NOT MET

How about this molecule: "N[C@H]1CC[C@H](NC(=O)c2cncc(Br)c2)CC1"
NOT MET

Can you handle "N[C@@H](Cc1ccc(O)cc1)C(=O)N1CCC(NC(=O)c2ccc3c(c2)CC(=O)N3)CC1" next?
MET

# iterate: "CC(=O)Nc1ccc(S(=O)(=O)N2CCC(NC(=O)C3CCN(CC4CC4)CC3)CC2)cc1"
NOT MET

Please answer likewise for CC(NC(=O)c1cccnc1)C1CCN(C(=O)[C@H](C)N)CC1 (stereo partly drawn)
NOT MET

Similarly, "N[C@H]1CC[C@H](NC(=O)c2ccc3nc[nH]c3c2)CC1" ?
NOT MET

Now try NCCC(=O)NC1CCC(NC(=O)c2ccc3c(c2)CC(=O)N3)CC1 (stereo not drawn) .
MET

Again, but for CC(NC(=O)c1ccc2[nH]c(=O)oc2c1)C1CCN(C(=O)[C@H](C)N)CC1 (stereo partly drawn) [Cpd. No. 94, Hydrochloride]
MET
